target: HRgpA-6H (Porphyromonas gingivalis) (UniProt P28784); assay: ELISA, coated HRgpA-6H
Entries annotated with measured OD450 nm

Binder: KB001 mouse Fab VL T100K (Fab, V domains shown) VH: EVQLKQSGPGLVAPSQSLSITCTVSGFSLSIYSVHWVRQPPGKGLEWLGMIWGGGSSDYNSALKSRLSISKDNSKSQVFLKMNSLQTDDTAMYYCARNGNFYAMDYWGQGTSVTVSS VL: QIVLTQSPAIMSASLGERVTMTCTASSSVSSSFLHWYQQKPGSSPQLWIYSTSNLASGVPARFSGSGSGTSYSLTISSMEAEDAATYYCHQYHHSPYIYKFGGGTKLEIK
OD450 nm: 0.625

Binder: KB001 mouse Fab VH G99S (Fab, V domains shown) VH: EVQLKQSGPGLVAPSQSLSITCTVSGFSLSIYSVHWVRQPPGKGLEWLGMIWGGGSSDYNSALKSRLSISKDNSKSQVFLKMNSLQTDDTAMYYCARNSNFYAMDYWGQGTSVTVSS VL: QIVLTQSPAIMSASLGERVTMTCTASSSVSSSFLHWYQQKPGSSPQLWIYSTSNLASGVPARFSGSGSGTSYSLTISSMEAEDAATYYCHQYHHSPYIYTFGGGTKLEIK
OD450 nm: 0.809

Binder: KB001 mouse Fab VL T100D (Fab, V domains shown) VH: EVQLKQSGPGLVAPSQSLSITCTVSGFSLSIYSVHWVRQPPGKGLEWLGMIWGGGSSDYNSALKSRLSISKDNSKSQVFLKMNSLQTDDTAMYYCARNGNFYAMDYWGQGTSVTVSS VL: QIVLTQSPAIMSASLGERVTMTCTASSSVSSSFLHWYQQKPGSSPQLWIYSTSNLASGVPARFSGSGSGTSYSLTISSMEAEDAATYYCHQYHHSPYIYDFGGGTKLEIK
OD450 nm: 0.645
